# target_of_assay: His6-PDK1 (aa 52-556) (Homo sapiens)
# Construct: 15 μL His6-PDK1 (aa 52-556) 3.33 ng/well); host or cells: baculovirus-infected insect cells
# Sequence (O15530 52-556): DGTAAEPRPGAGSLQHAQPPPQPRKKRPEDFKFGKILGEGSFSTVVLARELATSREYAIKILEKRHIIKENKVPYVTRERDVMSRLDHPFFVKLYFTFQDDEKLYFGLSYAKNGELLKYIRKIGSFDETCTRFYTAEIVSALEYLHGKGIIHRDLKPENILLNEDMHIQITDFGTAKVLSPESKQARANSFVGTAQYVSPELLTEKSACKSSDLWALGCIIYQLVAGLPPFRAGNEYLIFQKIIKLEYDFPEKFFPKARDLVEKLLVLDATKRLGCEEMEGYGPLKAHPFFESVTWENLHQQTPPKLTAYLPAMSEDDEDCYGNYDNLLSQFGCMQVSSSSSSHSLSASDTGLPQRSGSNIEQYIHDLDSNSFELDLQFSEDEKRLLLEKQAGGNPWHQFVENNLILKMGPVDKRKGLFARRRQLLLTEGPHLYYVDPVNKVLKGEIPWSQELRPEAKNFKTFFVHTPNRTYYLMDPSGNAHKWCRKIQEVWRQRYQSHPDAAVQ
# experiment_notes: PDK1 kinase assay III (with Tween 20)
# Type: biochemical
# condition_context: compound at 10 μM; PDK1 kinase assay III (values without asterisk); read-out: % CTL (residual activity of the enzyme relative to DMSO control)
Record form. Attribute: remaining activity at 10 µM. Fill in for each entry.
Give bare numbers, in %.

Look up and report measured remaining activity at 10 µM for this entry: CN(C)Cc1ccc(Nc2ncc3cc(N4CC[C@@H](NC(=O)c5cncn(Cc6ccc(F)c(F)c6)c5=O)C4)ccc3n2)cc1
14.7

Look up and report measured remaining activity at 10 µM for this entry: O=C(NC/C=C/c1ccc2nc(NC3CC3)ncc2c1)c1cncn(Cc2ccc(F)c(F)c2)c1=O
17

Look up and report measured remaining activity at 10 µM for this entry: CN(C)Cc1ccc(Nc2ncc3c(F)c(C#CCNC(=O)c4cncn(Cc5ccc(F)c(F)c5)c4=O)ccc3n2)cc1
8.9

# next molecule below
Look up and report measured remaining activity at 10 µM for this entry: Cc1c(C(=O)NCC#Cc2cc(OCCN)c3nc(Nc4ccc(N5CCOCC5)cc4)ncc3c2)c(=O)n(Cc2ccc(F)c(F)c2)n1C
13.8
